Experiment: Cytotoxicity against human HepG2 cells after 24 hrs by resazurin assay
Type: cell-based
OBSERVED_PROPERTY: CC50 at 24 h (µM)
I only need the number, in µM, no unit after it.

Some solved cases for reference:
COMPOUND: O=C(O)c1c(O)cccc1C=Cc1ccc2ccccc2c1 (mixture of isomers)
CC50 at 24 h (µM): 71
--
COMPOUND: COc1cc(Cl)cc(C=Cc2ccc3ccccc3c2)c1C(=O)O
CC50 at 24 h (µM): 104
--
COMPOUND: CCN(CC)C(=O)c1c(CCc2ccc3ccccc3c2)cc(OC)cc1OC
CC50 at 24 h (µM): 59

For the next question, use this compound.
I would be grateful if you could share the reported CC50 at 24 h for O=C(O)c1c(O)cc(Cl)cc1CCc1ccc2ccccc2c1 .
35

----------
Assay: Cytotoxicity against human HepG2 cells after 24 hrs by resazurin assay
Type: cell-based
molecules and their reported CC50 at 24 h
I only need the number, in µM, no unit after it.

Some solved cases for reference:
MOLECULE: COc1cc(/C=C/c2ccc3ccccc3c2)cc(OC)c1OC
CC50 at 24 h / µM: 16.8

MOLECULE: CCN(CC)C(=O)c1c(/C=C\c2ccc3ccccc3c2)cccc1OC
CC50 at 24 h / µM: 28

MOLECULE: CCN(CC)C(=O)c1c(O)cc(O)cc1CCc1ccc2ccccc2c1
CC50 at 24 h / µM: 36.4

MOLECULE: COc1cc(O)c(C(=O)O)c(CCc2ccc3ccccc3c2)c1
CC50 at 24 h / µM: 71

MOLECULE: COc1cc(/C=C\c2ccccc2)cc(OC)c1OC
CC50 at 24 h / µM: 20.2

For the next question, use this molecule.
I would be grateful if you could share the reported CC50 at 24 h for O=C(O)c1c(O)cc(Cl)cc1C=Cc1ccc2ccccc2c1 (mixture of isomers) .
25

----------
Assay: Cytotoxicity against HEK293 cells after 24 hrs by resazurin assay
Type: cell-based
Conditions: human
OBSERVED_PROPERTY: CC50 at 24 h (µM)
I only need the number, in µM, no unit after it.

Some solved cases for reference:
MOLECULE: COc1cc(Cl)cc(C=Cc2ccc3ccccc3c2)c1C(=O)O
MEASURED_VALUE: 93
//
MOLECULE: CCN(CC)C(=O)c1c(/C=C/c2ccc3ccccc3c2)cccc1OC
MEASURED_VALUE: 116
//
MOLECULE: O=C(O)c1c(O)cc(Cl)cc1CCc1ccc2ccccc2c1
MEASURED_VALUE: 35

I would be grateful if you could share the reported CC50 at 24 h for Oc1cc(CCc2ccccc2)cc(O)c1O .
106

I would be grateful if you could share the reported CC50 at 24 h for COc1cc(/C=C/c2ccc3ccccc3c2)cc(OC)c1OC .
23.4

I would be grateful if you could share the reported CC50 at 24 h for CCN(CC)C(=O)c1c(O)cc(O)cc1CCc1ccc2ccccc2c1 .
30.6

----------
compounds and their reported CC50 at 24 h
Assay: Cytotoxicity against HEK293 cells after 24 hrs by resazurin assay
Type: cell-based
Conditions: human
I only need the number, in µM, no unit after it.

Some solved cases for reference:
COMPOUND: COc1cc(O)c(C(=O)O)c(CCc2ccc3ccccc3c2)c1
CC50 at 24 h / µM: 65

COMPOUND: COc1cc(/C=C/c2ccccc2)cc(OC)c1OC
CC50 at 24 h / µM: 62.6

I would be grateful if you could share the reported CC50 at 24 h for O=C(O)c1c(O)cc(Cl)cc1C=Cc1ccc2ccccc2c1 (mixture of isomers) .
38

I would be grateful if you could share the reported CC50 at 24 h for Cc1cc(O)c(C(=O)O)c(C=Cc2ccc3ccccc3c2)c1 (mixture of isomers) .
52

----------
Assay: Cytotoxicity against human HepG2 cells after 24 hrs by resazurin assay
Format: cell-based
Threshold-based label: CC50 at 24 h under 40 µM gives rule met, CC50 at 24 h not under 40 µM gives rule not met.

COMPOUND: O=C(O)c1c(O)cccc1/C=C/c1ccccc1
CAT: rule not met

COMPOUND: CCN(CC)C(=O)c1c(O)cccc1CCc1ccc2ccccc2c1
CAT: rule not met

COMPOUND: COc1cc(CCc2ccccc2)cc(OC)c1OC
CAT: rule not met

COMPOUND: Oc1cc(CCc2ccccc2)cc(O)c1O
CAT: rule not met

COMPOUND: COc1cc(CCc2ccc3ccccc3c2)cc(OC)c1OC
CAT: rule not met

COMPOUND: CCN(CC)C(=O)c1c(CCc2ccc3ccccc3c2)cccc1OC
CAT: rule met

Report whether reported CC50 at 24 h is lower than 40 µM (strictly) for COc1cc(/C=C/c2ccccc2)cc(OC)c1OC
rule met

Report whether reported CC50 at 24 h is lower than 40 µM (strictly) for COc1cc(O)c(C(=O)O)c(C=Cc2ccc3ccccc3c2)c1 (mixture of isomers)
rule not met

Report whether reported CC50 at 24 h is lower than 40 µM (strictly) for COc1cc(C=Cc2ccc3ccccc3c2)c(C(=O)O)c(OC)c1
rule not met

Report whether reported CC50 at 24 h is lower than 40 µM (strictly) for Cc1cc(O)c(C(=O)O)c(CCc2ccc3ccccc3c2)c1
rule met

Report whether reported CC50 at 24 h is lower than 40 µM (strictly) for Oc1cc(CCc2ccc3ccccc3c2)cc(O)c1O
rule not met

Report whether reported CC50 at 24 h is lower than 40 µM (strictly) for CCN(CC)C(=O)c1c(/C=C\c2ccc3ccccc3c2)cc(OC)cc1OC
rule not met

Report whether reported CC50 at 24 h is lower than 40 µM (strictly) for COc1cc(C)cc(C=Cc2ccc3ccccc3c2)c1C(=O)O (mixture of isomers)
rule not met

Report whether reported CC50 at 24 h is lower than 40 µM (strictly) for Cc1cc(O)c(C(=O)O)c(C=Cc2ccc3ccccc3c2)c1 (mixture of isomers)
rule met

----------
Assay: Cytotoxicity against HEK293 cells after 24 hrs by resazurin assay
Format: cell-based
Settings: human
molecules and their reported CC50 at 24 h

Some solved cases for reference:
MOLECULE: O=C(O)c1c(O)cccc1CCc1ccc2ccccc2c1
OBSERVED_PROPERTY: CC50 at 24 h
MEASURED_VALUE: > 100 µM
--
MOLECULE: COc1cc(CCc2ccc3ccccc3c2)cc(OC)c1OC
OBSERVED_PROPERTY: CC50 at 24 h
MEASURED_VALUE: > 100 µM
--
MOLECULE: COc1cc(C=Cc2ccc3ccccc3c2)c(C(=O)O)c(OC)c1
OBSERVED_PROPERTY: CC50 at 24 h
MEASURED_VALUE: > 100 µM
--
MOLECULE: O=C(O)c1c(O)cccc1/C=C/c1ccccc1
OBSERVED_PROPERTY: CC50 at 24 h
MEASURED_VALUE: > 100 µM
--
MOLECULE: CCN(CC)C(=O)c1c(CCc2ccc3ccccc3c2)cc(OC)cc1OC
OBSERVED_PROPERTY: CC50 at 24 h
MEASURED_VALUE: > 100 µM
--
MOLECULE: CCN(CC)C(=O)c1c(O)cccc1CCc1ccc2ccccc2c1
OBSERVED_PROPERTY: CC50 at 24 h
MEASURED_VALUE: > 100 µM
--
MOLECULE: O=C(O)c1c(O)cccc1CCc1ccccc1
OBSERVED_PROPERTY: CC50 at 24 h
MEASURED_VALUE: > 100 µM
--
MOLECULE: CCN(CC)C(=O)c1c(/C=C\c2ccc3ccccc3c2)cc(OC)cc1OC
OBSERVED_PROPERTY: CC50 at 24 h
MEASURED_VALUE: > 100 µM
--
MOLECULE: COc1cc(C)cc(C=Cc2ccc3ccccc3c2)c1C(=O)O (mixture of isomers)
OBSERVED_PROPERTY: CC50 at 24 h
MEASURED_VALUE: 119 µM
--
MOLECULE: CCN(CC)C(=O)c1c(CCc2ccc3ccccc3c2)cccc1OC
OBSERVED_PROPERTY: CC50 at 24 h
MEASURED_VALUE: 85.7 µM

I would be grateful if you could share the reported CC50 at 24 h for COc1cc(O)c(C(=O)O)c(C=Cc2ccc3ccccc3c2)c1 (mixture of isomers) .
65 µM

I would be grateful if you could share the reported CC50 at 24 h for Oc1cc(CCc2ccc3ccccc3c2)cc(O)c1O .
> 100 µM

I would be grateful if you could share the reported CC50 at 24 h for Cc1cc(O)c(C(=O)O)c(CCc2ccc3ccccc3c2)c1 .
40 µM

I would be grateful if you could share the reported CC50 at 24 h for O=C(O)c1c(O)cccc1C=Cc1ccc2ccccc2c1 (mixture of isomers) .
97 µM

I would be grateful if you could share the reported CC50 at 24 h for COc1cc(/C=C\c2ccc3ccccc3c2)cc(OC)c1OC .
> 100 µM

I would be grateful if you could share the reported CC50 at 24 h for COc1cccc(C=Cc2ccc3ccccc3c2)c1C(=O)O (mixture of isomers) .
> 100 µM

I would be grateful if you could share the reported CC50 at 24 h for COc1cc(/C=C\c2ccccc2)cc(OC)c1OC .
36 µM

I would be grateful if you could share the reported CC50 at 24 h for COc1cc(CCc2ccccc2)cc(OC)c1OC .
> 100 µM

I would be grateful if you could share the reported CC50 at 24 h for CCN(CC)C(=O)c1c(/C=C\c2ccc3ccccc3c2)cccc1OC .
38.7 µM
